# collection of pIC50 values tested on Cytochrome P450 2D6 (Homo sapiens, UniProt P10635)
# Sequence (P10635 whole entry): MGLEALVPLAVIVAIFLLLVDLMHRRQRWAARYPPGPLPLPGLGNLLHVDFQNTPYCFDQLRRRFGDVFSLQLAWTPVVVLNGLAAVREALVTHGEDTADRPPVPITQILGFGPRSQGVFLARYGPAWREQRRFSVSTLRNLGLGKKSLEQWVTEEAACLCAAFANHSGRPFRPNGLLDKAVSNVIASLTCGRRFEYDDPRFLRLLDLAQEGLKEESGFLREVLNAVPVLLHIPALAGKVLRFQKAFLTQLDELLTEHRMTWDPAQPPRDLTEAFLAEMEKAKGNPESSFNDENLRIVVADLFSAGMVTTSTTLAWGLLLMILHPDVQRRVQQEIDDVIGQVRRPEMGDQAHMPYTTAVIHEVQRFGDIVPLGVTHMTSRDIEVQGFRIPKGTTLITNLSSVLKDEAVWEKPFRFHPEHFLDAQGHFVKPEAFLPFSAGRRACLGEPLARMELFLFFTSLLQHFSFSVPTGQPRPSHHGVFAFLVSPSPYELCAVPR
pIC50: −log10 of the molar value.
Measurement Kind: pIC50

>>> df
                           molecular_string  measurement_kind   value
0  Cc1ccoc1C(=O)Nc1ccc(N2C(=O)c3ccc(Cl)cc3C2=O)c(Cl)c1             pIC50  < 4.52
1  O=C(Nc1ccc(N2C(=O)c3cccc(Cl)c3C2=O)c(Cl)c1)c1ncccc1Cl             pIC50  < 4.52

----------
- Species on record: Homo sapiens
- Test Description: Intrinsic clearance in human hepatocytes at 1 uM by LC-MS/MS analysis
- Settings: read-out: CLH
Measurement Kind: CLint scaled at 1 µM (mL/min/kg)

                           molecular_string  value
0  Cc1ccoc1C(=O)Nc1ccc(N2C(=O)c3cccc(F)c3C2=O)c(Cl)c1    2.7
